# system-name: human CLDN18.2 (human)
# measurement-description: cell-based or functional assay
Param threshold (2 µg/mL) applies to CDC EC50, HEK293T-hCLDN18.2 target cells, human serum; output 1 (yes) when value >= threshold, 0 (no) when value < threshold.

binder	label-value
9F3-chIgG1 (antibody, V domains shown, human-mouse chimeric antibody, human IgG1/kappa constant regions) VH: EVRLQQSGPELVKPGASVKIPCKASGYKFTDYNMDWVKQSHGKSLEWIGEINPNNGGTIYNQKFKGKATLTVDKSSSTAYMELRSLTSEDTAVYYCARIYYGNSFAYWGQGTLVTVSS VL: DIVMTQSPSSLTVTAGEKVTMSCKSSQSLLNSGNLKNYLTWYQQKPGQPPKLLIYWASTRESGVPDRFTGSGSGTDFTLTISSVQAEDLAVYYCQNDYFYPLTFGAGTKLEIKR	0 (no)
5F9-chIgG1 (antibody, V domains shown, human-mouse chimeric antibody, human IgG1/kappa constant regions) VH: QVQLQQSGAELVKPGASVKLSCKASGYTFTSYWMHWVKQRPGQGLEWIGMIHPNSVSTNYNEKFKSKATLTVDKSSSTAYMQLSSLTSEDSAVYYCAVYFDYWGQGTTLTVSS VL: DIQVTQSPSSLSASLGERVSLTCRASQDIGSSLNWLQQEPDGTIKRLIYASSSLNSGVPKRFSVSRSGSDYSLTISSLESEDFVDYYCLQYATSPPTFGGGTKLEIKR	1 (yes)
27B5-chIgG1 (antibody, V domains shown, human-mouse chimeric antibody, human IgG1/kappa constant regions) VH: QVQLQQPGTELVKPGASVKLSCKASGYTFTSYWMHWVKQRPGQGLEWIGNIHPSNGGSNHNEKFKSKATLTVDKSSSTAYMQLSSLTSEDSAVYYCAPIYYGNSLAYWGHGTLVTVSA VL: DVVMTQSPSSLTVTAGEKVTMSCKSSQSLLNSGNQKNYLTWYQQKPGQPPKLLLYWASTRESGVPDRFTGSGSGTDFTLTISSVQAEDLAVYYCQNSYFYPFTFGSGTKLEIKR	1 (yes)
37B1-chIgG1 (antibody, V domains shown, human-mouse chimeric antibody, human IgG1/kappa constant regions) VH: EVRLQQSGPELVKPGASVKMSCKASGYSFTDYNMHWVKQSHGKSPEWVGYINPNKGGTGYNQKFKGKATLTVNKSSSTANMELRSLTSEDSAVYYCARIWYGNSFAYWGQGTLVTVSA VL: DVVMTQSPSSLTVTAGEKVTMSCKSSQSLLNSGNQKNYLTWYQQKPGQPPKLLIYWASTRESGVPDRFTGSGSGTDFTLTISSVQAEDLAVYFCQNDYFYPFTFGSGTKLEIKR	0 (no)
44A8-chIgG1 (antibody, V domains shown, human-mouse chimeric antibody, human IgG1/kappa constant regions) VH: EVRLQQSGPELVKPGASVKMSCKASGYTFTDYNMHWVKQSHGKSLEWIGYINPKNGGIRYNQKFTGKATLTVNKSSSTAYMELRSLTSEDSAVYYCARGGYYGNTLDNWGQGTSVTVSS VL: DIVMTQSPSSLTLTAGEKVTMSCKSSQSLLNSGNQKNYLTWYQQKPGQPPKLLIYWASTSESGVPDRFTGSGSGTDFTLTISSVQAEDLAIYYCQNAYFYPWTFGGGTKLEIKR	1 (yes)

All figures here come from patent US20210403552A1.
